# Test protocol: Pharmacokinetic study, s.c., plasma LC-MS/MS
# Type: in vivo
# Measurement conditions: plasma, sc; rats, 40 mg/rat s.c.; read-out: Area under the curve (AUC)0–last
Measured quantity: AUC (µg·h/mL)
Respond with the bare value in µg·h/mL.

Exercise: Consider the compound shown here: Cc1ncc([N+](=O)[O-])n1CCO What is its recorded AUC?
Solution: 206

----------
# Test protocol: Pharmacokinetic study, s.c., plasma LC-MS/MS
# Type: in vivo
# Measurement conditions: plasma, sc; rats, 40 mg/rat s.c.; read-out: Maximum concentration (Cmax)
Measured quantity: Cmax (ng/mL)
Respond with the bare value in ng/mL.

Exercise: Consider the compound shown here: Cc1ncc([N+](=O)[O-])n1CCO [Metronidazole] What is its recorded Cmax?
Solution: 23000
